test system: Fusarium graminearum (Fgr); type: cell-based
MEASUREMENT KIND: Permeability index
Give bare numbers.

Consider the reported Permeability index for these substances:
SUBSTANCE: HXL002: permeabilizing defensin, mature protein SEQ ID NO:26 (RDCLSQSHKFKGACLSSSNCAAVCRTENFPDGECHTHNFARKCFCKRAC; HXL002 Triticum aestivum)
TARGET OF ASSAY: Fusarium graminearum (Fgr)
MEASUREMENT: 1.0

SUBSTANCE: HXL004: Class I permeabilizing defensin, mature protein SEQ ID NO:27 (RTCESQSHRFKGLCFSRSNCASVCHTEGFNGGHCRGFRRRCFCTRHC; HXL004 Nicotiana benthamiana)
TARGET OF ASSAY: Fusarium graminearum (Fgr)
MEASUREMENT: 1.6

SUBSTANCE: HXL001: Class I permeabilizing defensin, mature protein SEQ ID NO:25 (RHCLSQSHRFKGLCMSSNNCANVCQTENFPGGECKAEGATRKCFCKKIC; HXL001 Zea Mays)
TARGET OF ASSAY: Fusarium graminearum (Fgr)
MEASUREMENT: 0.9

SUBSTANCE: HXP4: synthetic (artificial) defensin variant, SEQ ID NO:8 (RECKTESHRFKGPCITKPPCRKACISEKFTDGHCSKILRRCLCTKPC; HXP4 protein)
TARGET OF ASSAY: Fusarium graminearum (Fgr)
MEASUREMENT: 1.3

SUBSTANCE: RsAFP2: defensin compared in the Fgr permeabilization assay (QKLCQRPSGTWSGVCGNNNACKNQCIRLEKARHGSCNYVFPAHKCICYFPC; UniProt P30230 30-80, looked up) [reference compound]
TARGET OF ASSAY: Fusarium graminearum (Fgr)
MEASUREMENT: 0.3

SUBSTANCE: HXL008: Class I permeabilizing defensin, mature protein SEQ ID NO:29 (KVCTKPSKFFKGLCGTDGACTTACRKEGLHSGYCQLKGFLNSVCVCRKHC; HXL008 Picramnia pentandra)
TARGET OF ASSAY: Fusarium graminearum (Fgr)
MEASUREMENT: 0.9

Fill in Permeability index for each of the 2 substances listed.
1. HXL013: Class I permeabilizing defensin, mature protein SEQ ID NO:30 (KDCLTRRHGFQGRCLFDRQCAHVCRSDGFIGGQCRGPLRKCFCSRPC; HXL013 Glycine max)
2. NaD1: Class II Solanaceous defensin from flowers of ornamental tobacco Nicotiana alata (Q8GTM0) (RECKTESNTFPGICITKPPCRKACISEKFTDGHCSKILRRCLCTKPC; UniProt Q8GTM0 26-72, looked up)

Result:
1.4
1.0

---

system: Fusarium graminearum; conditions: read-out: IC50 Fgr
MEASUREMENT KIND: pIC50
One number for each entry, as −log10 of the molar value.

pIC50 for EcAMP1: α-hairpinin peptide, SEQ ID NO:36, produced recombinantly in E. coli (GSGRGSCRSQCMRRHEDEPWRVQECVSQCRRRRGGGD; EcAMP1 Echinochloa crus-galli) is 5.15
